Target: T1, recombinant human IL-27 (human, UniProt Q14213 21-229; Q8NEV9 29-243)
T1 construct: Bought from R&D Systems (Cat. 2526-IL); also called hIL-27; rhIL-27
T1 sequence 1: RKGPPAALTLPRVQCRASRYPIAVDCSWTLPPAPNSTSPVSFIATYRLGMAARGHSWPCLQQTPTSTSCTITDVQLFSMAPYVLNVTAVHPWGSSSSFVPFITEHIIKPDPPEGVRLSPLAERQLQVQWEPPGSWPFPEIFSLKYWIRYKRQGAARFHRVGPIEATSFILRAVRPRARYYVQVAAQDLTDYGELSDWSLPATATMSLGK
T1 sequence 2: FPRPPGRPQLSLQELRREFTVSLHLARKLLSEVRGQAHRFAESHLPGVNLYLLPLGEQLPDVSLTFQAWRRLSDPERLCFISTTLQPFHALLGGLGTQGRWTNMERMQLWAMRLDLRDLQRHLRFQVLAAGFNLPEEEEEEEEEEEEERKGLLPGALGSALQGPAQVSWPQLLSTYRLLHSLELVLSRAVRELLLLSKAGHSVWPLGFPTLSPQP
Assay: SPR, hIL-27 on CM5 chip, bivalent analyte model
Measured endpoint: kd2 (s⁻¹)
Give just the number in s⁻¹; leave the unit off.

Past entries and their recorded results:
Ab7.16 (antibody, human IgG1, kappa, V domains shown, human IgG1/kappa) VH: EVQLVESGGGLVQPGGSLRLSCAASGFTFTSYSMSWVRQAPGKGLEWVAYISYDGGSAYYPDTVKGRFTISRDNSKNTLYLQMNSLRAEDTAVYYCARHGDYDDDDAMDYWGQGTLVTVSS VL: DIQMTQSPSSLSASVGDRVTITCRASENIYSYLAWYQQKQGKAPKLLVYNAETLTEGVPSRFSGSGSGTDFTLTISSLQPEDFANYYCQHHYGTPLTFGQGTKLDIKR
0.091
Ab7.22 (antibody, human IgG1, kappa, V domains shown, human IgG1/kappa) VH: EVQLVESGGGLVQPGGSLRLSCAASGFTFTSYSMSWVRQAPGKGLEWVSYISYDGGSAYYPDTVKGRFTISRDNSKNTLYLQMNSLRAEDTAVYYCARHGDYDDDDAMDYWGQGTLVTVSS VL: DIQMTQSPSSLSASVGDRVTITCRASENIYSYLAWYQQKPGKAPKLLVYNAETLTEGVPSRFSGSGSGTDFTLTISSLQPEDFATYYCQHHYGTPLTFGQGTKLEIKR
1.11
Ab7.20 (antibody, human IgG1, kappa, V domains shown, human IgG1/kappa) VH: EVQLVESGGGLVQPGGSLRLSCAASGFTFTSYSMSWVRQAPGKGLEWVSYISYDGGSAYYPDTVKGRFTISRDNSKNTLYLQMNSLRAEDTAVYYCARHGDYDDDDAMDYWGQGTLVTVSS VL: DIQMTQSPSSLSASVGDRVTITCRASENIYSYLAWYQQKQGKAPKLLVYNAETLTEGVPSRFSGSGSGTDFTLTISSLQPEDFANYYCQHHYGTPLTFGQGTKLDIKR
0.086
Ab7.21 (antibody, human IgG1, kappa, V domains shown, human IgG1/kappa) VH: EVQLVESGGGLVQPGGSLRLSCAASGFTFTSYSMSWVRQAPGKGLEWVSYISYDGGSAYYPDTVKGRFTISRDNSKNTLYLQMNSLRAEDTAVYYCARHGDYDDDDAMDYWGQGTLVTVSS VL: DIQMTQSPSSLSASVGDRVTITCRASENIYSYLAWYQQKPGKAPKLLVYNAETLTEGVPSRFSGSGSGTDFTLTISSLQPEDFANYYCQHHYGTPLTFGQGTKLEIKR
0.097
Ab7.2 (antibody, human IgG1, kappa, V domains shown, human IgG1/kappa) VH: EVKLVESGGGLVQPGGSLKLFCAASGFTFTSYSMSWVRQTPEKRLEWVAYISYDGGSAYYPDTVKGRFSISRDNAKKTLYLQMSSLKSEDTAMYYCARHGDYDDDDAMDYWGQGTSVTVSS VL: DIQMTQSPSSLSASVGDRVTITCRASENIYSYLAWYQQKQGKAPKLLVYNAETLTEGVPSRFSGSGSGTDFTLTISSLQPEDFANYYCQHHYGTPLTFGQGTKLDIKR
0.087

// kd2 lookup, key: Ab7.5 (antibody, human IgG1, kappa, V domains shown, human IgG1/kappa) VH: EVKLVESGGGLVQPGGSLRLSCAASGFTFTSYSMSWVRQAPGKGLEWVAYISYDGGSAYYPDTVKGRFTISRDNSKKTLYLQMSSLKSEDTAMYYCARHGDYDDDDAMDYWGQGTSVTVSS VL: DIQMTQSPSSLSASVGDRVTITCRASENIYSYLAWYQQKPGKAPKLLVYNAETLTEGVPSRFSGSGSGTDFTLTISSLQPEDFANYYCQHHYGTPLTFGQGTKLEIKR 0.068

Ab7.14 (antibody, human IgG1, kappa, V domains shown, human IgG1/kappa) VH: EVKLVESGGGLVQPGGSLRLSCAASGFTFTSYSMSWVRQAPGKGLEWVAYISYDGGSAYYPDTVKGRFTISRDNSKKTLYLQMNSLRAEDTAVYYCARHGDYDDDDAMDYWGQGTLVTVSS VL: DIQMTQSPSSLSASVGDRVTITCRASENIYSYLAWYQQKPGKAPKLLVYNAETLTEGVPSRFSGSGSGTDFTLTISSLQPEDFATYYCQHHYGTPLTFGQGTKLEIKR ? 0.099

Ab7.10 (antibody, human IgG1, kappa, V domains shown, human IgG1/kappa) VH: EVQLVESGGGLVQPGGSLRLSCAASGFTFTSYSMSWVRQAPGKGLEWVAYISYDGGSAYYPDTVKGRFTISRDNSKNTLYLQMSSLKSEDTAMYYCARHGDYDDDDAMDYWGQGTLVTVSS VL: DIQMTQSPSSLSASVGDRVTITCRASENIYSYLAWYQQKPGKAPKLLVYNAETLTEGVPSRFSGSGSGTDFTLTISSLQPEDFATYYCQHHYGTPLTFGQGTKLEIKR ? 0.2

Ab7.9 (antibody, human IgG1, kappa, V domains shown, human IgG1/kappa) VH: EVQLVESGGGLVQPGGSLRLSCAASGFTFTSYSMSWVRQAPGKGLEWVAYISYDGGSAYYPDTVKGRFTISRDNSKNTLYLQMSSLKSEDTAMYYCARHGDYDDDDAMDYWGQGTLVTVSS VL: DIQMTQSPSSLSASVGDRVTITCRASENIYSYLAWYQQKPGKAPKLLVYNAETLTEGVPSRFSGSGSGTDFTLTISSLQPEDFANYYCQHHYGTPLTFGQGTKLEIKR ? 0.11

Ab7.18 (antibody, human IgG1, kappa, V domains shown, human IgG1/kappa) VH: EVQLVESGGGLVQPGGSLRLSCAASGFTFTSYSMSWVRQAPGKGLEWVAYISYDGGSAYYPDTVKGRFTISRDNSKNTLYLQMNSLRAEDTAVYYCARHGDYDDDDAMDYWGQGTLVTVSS VL: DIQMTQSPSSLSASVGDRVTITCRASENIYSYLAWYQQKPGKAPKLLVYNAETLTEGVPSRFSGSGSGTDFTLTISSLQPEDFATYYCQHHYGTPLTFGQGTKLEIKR ? 0.11
